Molecular target: Shc (PTB domain, Shc^PTB) (Homo sapiens)
Sequence (P29353 156-339 limits assumed): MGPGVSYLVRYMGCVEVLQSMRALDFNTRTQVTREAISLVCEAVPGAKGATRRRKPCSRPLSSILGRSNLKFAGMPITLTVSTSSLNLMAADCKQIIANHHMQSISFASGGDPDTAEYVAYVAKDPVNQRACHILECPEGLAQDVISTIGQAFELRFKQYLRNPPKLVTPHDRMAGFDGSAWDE
TEST READOUT: pKd
// field semantics: pKd = negative decimal log of concentration (mol/L)

Ask: Hello, I am looking for reported pKd with Shc (PTB domain, Shc^PTB) (Homo sapiens) for COc1ccc2c(c1)c(CC(=O)O)c(C)n2C(=O)c1ccc(Cl)cc1 . Could you help?
Result: 4.42

Origin of measurements: paper PMC6584941
